Listed here are compounds together with their documented EC50 (log10 M).
test system: HGGX6 (H3.3 G34R paediatric high-grade glioma line); experiment: EC50 (inflection of fitted growth-inhibition curve) (log10 M)

The following compounds have reported results that may help.
COC(=O)[C@]12CCC(C)(C)C[C@H]1[C@H]1C(=O)C=C3[C@@]4(C)C=C(C#N)C(=O)C(C)(C)[C@@H]4CC[C@@]3(C)[C@]1(C)CC2 [BARDOXOLONE METHYL] = -5.93
CN(C)C(=O)C(CCN1CCC(O)(c2ccc(Cl)cc2)CC1)(c1ccccc1)c1ccccc1 [LOPERAMIDE] = -4.74
COc1cccc2c1C(=O)c1c(O)c3c(c(O)c1C2=O)C[C@@](O)(C(=O)CO)C[C@@H]3O[C@H]1C[C@H](N)[C@H](O)[C@H](C)O1 [DOXORUBICIN] = -5.69
O=C(c1ccc(Nc2nccc(-c3cc4ccccc4s3)n2)cc1)N1CCC(N2CCCC2)CC1 [IKK 16] = -4.83

Summary: NCCOc1cc(C(=O)Nc2cc(OCCN)c3ccccc3n2)nc(C(=O)Nc2cc(OCCN)c3ccccc3n2)c1 [PYRIDOSTATIN] , HGGX6, EC50 (log10 M) = -5.03

Record for CCn1c(=O)c(-c2ccc(Cl)cc2Cl)cc2cnc(Nc3ccc(N4CCNCC4)c(F)c3)nc21 [FRAX486] under target or system HGGX6: EC50 (log10 M) reported as -5.32

Readout EC50 (log10 M) for CCCCOc1ccc(C(=O)CCN2CCCCC2)cc1 [DYCLONINE] , test system HGGX6, was -5.02
